- measurement-target: human recombinant 5-HT2C receptor (Homo sapiens, UniProt P28335)
- Construct: expressed in transfected cells; host or cells: CHO
- Sequence (P28335 33-458): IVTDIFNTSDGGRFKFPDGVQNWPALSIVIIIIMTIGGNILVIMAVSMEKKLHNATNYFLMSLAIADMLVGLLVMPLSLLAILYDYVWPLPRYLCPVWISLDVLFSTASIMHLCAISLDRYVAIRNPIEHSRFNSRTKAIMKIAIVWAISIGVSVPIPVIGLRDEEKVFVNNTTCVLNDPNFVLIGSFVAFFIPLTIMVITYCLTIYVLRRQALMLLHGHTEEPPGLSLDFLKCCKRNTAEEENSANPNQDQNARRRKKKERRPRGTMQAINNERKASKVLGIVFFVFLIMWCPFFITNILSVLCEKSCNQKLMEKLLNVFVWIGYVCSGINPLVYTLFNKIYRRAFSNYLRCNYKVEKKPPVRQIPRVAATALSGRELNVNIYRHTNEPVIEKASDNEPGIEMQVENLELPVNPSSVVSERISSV
- protocol-description: Affinity for 5-HT2C receptor binding sites (competitive radioligand binding, [3H]mesulergine)
- settings: membranes of CHO with h5-HT2C, * = tested as hydrochloride salt
Counter-ions that a name gives are not always drawn.
Entries and their measured Ki follow.
measured-parameter: Ki (µM)

INSERT INTO measurements (compound, censoring_sign, test_result) VALUES
  ('Fc1ccc(-c2nc(N3CCOCC3)nc3c2CNCC3)cc1 [Example 42]', '=', 0.5),
  ('CCN(CC)c1nc2c(c(-c3ccc(OC)cc3)n1)CNCCC2 [Example 17]', '=', 2.5),
  ('Cc1ccc(-c2nc(N3CCOC[C@@H]3C)nc3c2CCNCC3)cc1 [Example 94]', '=', 0.015),
  ('Cc1ccc(-c2nc(N3CCCC3)nc3c2CN(C)CC3)cc1 [Example 52]', '=', 0.5),
  ('Cc1ccc(-c2nc(N3CCCCC3)nc3c2CNCC3)cc1 [Example 50]', '=', 0.13),
  ('CC(C)c1ccc(-c2nc(N3[C@H](C)CCC[C@@H]3C)nc3c2CCNCC3)cc1 [Example 91]', '=', 0.045),
  ('COc1ccc(-c2nc(N3CCCCC3C)nc3c2CCCNC3)cc1 (stereo not shown) [Example 5, hydrochloride]', '=', 1.8),
  ('Cc1ccc(-c2nc(N3[C@H](C)CCC[C@@H]3C)nc3c2CCNCC3)cc1F [Example 85]', '=', 0.015),
  ('Cc1ccc(-c2nc(N3CCCC3C)nc3c2CCNCC3)cc1 (stereo not shown) [Example 72]', '=', 0.004),
  ('CCN(CC)c1nc2c(c(-c3ccc(C#N)cc3)n1)CCNC2 [Example 30]', '=', 1.4),
  ('Clc1ccc(-c2nc(N3CCOCC3)nc3c2CCNCC3)cc1 [Example 58]', '=', 0.02),
  ('C[C@@H]1CCC[C@H](C)N1c1nc2c(c(-c3ccc(Cl)c(Cl)c3)n1)CCNCC2 [Example 73]', '=', 0.038),
  ('Cc1ccc(-c2nc(N3CCOC[C@@H]3C)nc3c2CCNCC3)cc1Cl [Example 93]', '=', 0.028),
  ('Fc1ccc(-c2nc(N3CCCCCC3)nc3c2CCN(Cc2ccccc2)C3)cc1 [Example 31]', '=', 3.2),
  ('CCN(CC)c1nc2c(c(-c3ccncc3)n1)CCNCC2 [Example 10, hydrochloride]', '>', 10),
  ('C[C@H]1COCCN1c1nc2c(c(-c3ccc(F)cc3)n1)CNCC2 [Example 45]', '=', 2.5),
  ('Clc1ccc(-c2nc(N3CCCCC3)nc3c2CCNCC3)cc1 [Example 74]', '=', 0.001),
  ('c1ccc2ncc(-c3nc(N4CCOCC4)nc4c3CCNCC4)cc2c1 [Example 102]', '=', 0.36),
  ('Cc1ccc(-c2nc(N3CCCCC3)nc3c2CCNCC3)cc1 [Example 78]', '=', 0.001);

The reported numbers originate from patent US8829011B2.
